Item-by-item account of isoTOP-ABPP ratio (reactivity profile), P48735_C308
biological target: UniProtKB P48735; assay: Competitive isoTOP-ABPP, cell lysates; assay type: binding; details: 500 μm in-vitro ramos_231
Sequence (P48735 40-452): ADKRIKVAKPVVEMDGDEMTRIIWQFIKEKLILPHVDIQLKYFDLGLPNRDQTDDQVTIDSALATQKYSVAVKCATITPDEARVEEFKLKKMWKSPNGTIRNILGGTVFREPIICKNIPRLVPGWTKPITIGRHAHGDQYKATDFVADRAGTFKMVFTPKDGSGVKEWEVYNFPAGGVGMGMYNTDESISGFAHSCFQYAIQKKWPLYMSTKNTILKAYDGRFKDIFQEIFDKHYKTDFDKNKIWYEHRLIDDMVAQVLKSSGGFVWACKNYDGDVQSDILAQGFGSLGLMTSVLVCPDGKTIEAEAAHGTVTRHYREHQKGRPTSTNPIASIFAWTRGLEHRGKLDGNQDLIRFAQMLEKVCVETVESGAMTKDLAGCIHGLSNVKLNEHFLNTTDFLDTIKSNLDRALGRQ

Use the examples below as a reference point.
# molecule, recorded.measurement
measured = [
    ("COc1ccccc1OCCNC(=O)CCl [compound 28]", 0.9),
    ("O=C(CCl)NC12CC3CC(CC(C3)C1)C2 [compound 21]", 0.6),
    ("O=C(CCl)N1CCN(CC(=O)N2CCOCC2)CC1 [compound 29]", 1.0),
    ("CC(Cl)C(=O)Nc1cc(C(F)(F)F)cc(C(F)(F)F)c1 (centres unmarked) [compound 25]", 14.5),
]

Could you now consider this next molecule?
Record O=C(CCl)N1CCC(C(O)(c2ccccc2)c2ccccc2)CC1 [compound 20] . Reported isoTOP-ABPP ratio (reactivity profile), P48735_C308: 0.5

###

biological target: cysteines in MDA-MB-231 and Ramos cells (Homo sapiens); experiment: Competitive isoTOP-ABPP in situ (fragment-treated cells); format: cell-based; settings: 200 μM, insitu, 231
Quick rule: isoTOP-ABPP ratio Q5MNZ6_C63 of at least 2 means met, below that means not met.

# compound, group.label
records = [
    ("O=C(CCl)NC12CC3CC(CC(C3)C1)C2", "not met"),
]

Query: # bool: isoTOP-ABPP ratio Q5MNZ6_C63 of O=C(CCl)NCCc1c[nH]c2ccccc12 >= 2
Response: not met

Query: # bool: isoTOP-ABPP ratio Q5MNZ6_C63 of Cc1ccc(C=C(C#N)C(=O)NCCN2CCOCC2)cc1 >= 2
Response: not met

###

molecular target: cysteines in MDA-MB-231 and Ramos cells (Homo sapiens); assay: Competitive isoTOP-ABPP in situ (fragment-treated cells); type: cell-based; details: 200 μM, insitu, 231
endpoint.label: isoTOP-ABPP ratio Q9BTA9_C553
Number only, please.

Form field isoTOP-ABPP ratio Q9BTA9_C553 for item O=C(CCl)Nc1cccc2ncccc12 [compound 51] on cysteines in MDA-MB-231 and Ramos cells (Homo sapiens): 1.2

###

Item-by-item account of isoTOP-ABPP reactivity ratio, P63244_C182
molecular target: GNB2L1 C182 (P63244) (Homo sapiens); test: Competitive isoTOP-ABPP, cell lysates; assay type: binding; settings: 500 μm, in-vitro_ramos_231
Number only, please.

Use the examples below as a reference point.
# molecule, recorded.measurement
rows = [
    ("O=C(CCl)Nc1cc(C(=O)O)cc(C(F)(F)F)c1", 1.3),
    ("COC(=O)C1Cc2ccccc2CN1C(=O)CCl (stereo not shown)", 1.0),
    ("CC(C)(C)c1cc(NC(=O)CCl)on1", 1.9),
]

Record C=CC(=O)N(Cc1cccnc1)c1cc(C(F)(F)F)cc(C(F)(F)F)c1 . Reported isoTOP-ABPP reactivity ratio, P63244_C182: 1.3

Record O=C(CCl)Nc1ccccc1C1CCCCCC1 . Reported isoTOP-ABPP reactivity ratio, P63244_C182: 0.9

Record C=CC(=O)Nc1cc(C)c(Br)cc1C . Reported isoTOP-ABPP reactivity ratio, P63244_C182: 1.0

Record C=CC(=O)Nc1cc(F)c(N2CCN(C(=O)OC(C)(C)C)CC2)c(F)c1 . Reported isoTOP-ABPP reactivity ratio, P63244_C182: 1.1

Numbers sourced from patent US10670605B2.
